zone of inhibition at 20 µg/mL values, listed per item
# Test system: Staphylococcus aureus
# assayInfo: Antibacterial activity against Staphylococcus aureus at 20 ug/ml by agar plate diffusion technique
# Type: functional
# details: read-out: IZ
Unit mm implied. Number only.

Cc1occc1-c1nnc2n1NC(c1ccc[nH]1)S2 (centres undefined) ... 8.12
COc1ccc(Cl)c(-c2nnc3n2NC(c2cccn2C)S3)c1 (centres undefined) ... 6.1
COc1ccc(Cl)c(-c2nnc3sc(-c4cc(-c5ccccc5)nc5ccccc45)nn23)c1 ... 10.1
Cc1occc1-c1nnc2sc(-c3cc(-c4ccccc4)nc4ccccc34)nn12 ... 12.7

input: For the compound `COc1ccc(Cc2nnc3sc(-c4cc(-c5ccccc5)nc5ccccc45)nn23)cc1OC` , give its measured zone of inhibition at 20 µg/mL value.
output: 10.3

input: For the compound Cc1occc1-c1nnc2n1NC(c1cccn1C)S2 (centres undefined) , give its measured zone of inhibition at 20 µg/mL value.
output: 6.23

input: For the compound `COc1ccc(Cc2nnc3sc(Cc4c[nH]c5ccccc45)nn23)cc1OC` , give its measured zone of inhibition at 20 µg/mL value.
output: 7.38

input: For the compound `COc1ccc2[nH]c(C)c(Cc3nn4c(Cc5ccc(OC)c(OC)c5)nnc4s3)c2c1` , give its measured zone of inhibition at 20 µg/mL value.
output: 8.08

input: For the compound COc1ccc(Cc2nnc3n2NC(c2ccc([N+](=O)[O-])o2)S3)cc1OC (centres undefined) , give its measured zone of inhibition at 20 µg/mL value.
output: 8.37

input: For the compound `Cc1occc1-c1nnc2sc(Cc3c[nH]c4ccccc34)nn12` , give its measured zone of inhibition at 20 µg/mL value.
output: 8.19

input: For the compound `Cc1occc1-c1nnc2sc(-c3ccnc4ccccc34)nn12` , give its measured zone of inhibition at 20 µg/mL value.
output: 14.1

input: For the compound `COc1ccc(Cl)c(-c2nnc3sc(Cc4c[nH]c5ccc(OC)cc45)nn23)c1` , give its measured zone of inhibition at 20 µg/mL value.
output: 8.52

input: For the compound `COc1ccc2[nH]cc(Cc3nn4c(Cc5ccc(OC)c(OC)c5)nnc4s3)c2c1` , give its measured zone of inhibition at 20 µg/mL value.
output: 8.39

input: For the compound `Cc1occc1-c1nnc2sc(-c3ccnc(Cl)c3)nn12` , give its measured zone of inhibition at 20 µg/mL value.
output: 14.7
